System: Mus musculus
test: Compound was tested in vivo for its ability to antagonize apomorphine-induced climbing response in mice upon intraperitoneal administration
Type: functional
particulars: ip
Peptide text beside a SMILES is read from it. * marks the point of attachment. Nonanoyl = CCCCCCCCC(=O)*; Hexanoyl = CCCCCC(=O)*; Pentanoyl = CCCCC(=O)*
ED50 for assorted compounds
Respond with the bare value in mg/kg.

For reference, reported ED50 for NC(=O)[C@H](Cc1ccc(O)cc1)NC(=O)[C@@H]1CCCN1 stands at 3.4

For reference, reported ED50 for CC(C)(C)OC(=O)N1CCC[C@H]1C(=O)N[C@@H](Cc1ccc(O)cc1)C(N)=O stands at 2.5

For reference, reported ED50 for CCCCCC(=O)N1CCC[C@H]1C(=O)N[C@@H](Cc1ccc(O)cc1)C(N)=O (Hexanoyl-Pro-Tyr-NH2) stands at 0.5

For reference, reported ED50 for CCN1CCC[C@H]1CNC(=O)c1c(OC)ccc(Br)c1OC [REMOXIPRIDE] stands at 1.2

For reference, reported ED50 for CCCCC(=O)N1CCC[C@H]1C(=O)N[C@@H](Cc1ccc(O)cc1)C(N)=O (Pentanoyl-Pro-Tyr-NH2) stands at 3.2

For reference, reported ED50 for CC(C)(C)OC(=O)N1CCC[C@@H]1C(=O)N[C@@H](Cc1ccc(O)cc1)C(N)=O stands at 0.4

For reference, reported ED50 for CCCCCCCCC(=O)N1CCC[C@H]1C(=O)N[C@@H](Cc1ccc(O)cc1)C(N)=O (Nonanoyl-Pro-Tyr-NH2) stands at 0.5

For reference, reported ED50 for NC(=O)[C@H](Cc1ccc(O)cc1)NC(=O)[C@@H]1CCCN1C(=O)Cc1ccccc1 stands at 2.2

---

test: Acute toxicity on male outbred albino mice upon intraperitoneal administration
particulars: mouse, in vivo, ip
reported.endpoint: LD50 (mg/kg)
Respond with the bare value in mg/kg.

Would you please look over these solved cases?
• O=C(CCCN1CCC(O)(c2ccc(Cl)cc2)CC1)c1ccc(F)cc1 = 35
• CCN1CCC[C@H]1CNC(=O)c1c(OC)ccc(Br)c1OC [REMOXIPRIDE] = 302

For reference, reported LD50 for CCN1CCC[C@H]1CNC(=O)c1cc(S(N)(=O)=O)ccc1OC [LEVOSULPIRIDE] stands at 250

---

ED50 for assorted compounds
System: Rattus norvegicus
test: Compound was tested in vivo for its ability to antagonize extrapolatory behavior impairment induced by DOPA in rats upon intraperitoneal administration
Assay type: functional
particulars: ip
Peptide text beside a SMILES is read from it. * marks the point of attachment. Hexanoyl = CCCCCC(=O)*
Respond with the bare value in mg/kg.

Would you please look over these solved cases?
* NC(=O)[C@H](Cc1ccc(O)cc1)NC(=O)[C@@H]1CCCN1 | 1.6
* O=C(CCCN1CCC(O)(c2ccc(Cl)cc2)CC1)c1ccc(F)cc1 | 0.14
* CCN1CCC[C@H]1CNC(=O)c1cc(S(N)(=O)=O)ccc1OC [LEVOSULPIRIDE] | 16.5
* NC(=O)[C@H](Cc1ccc(O)cc1)NC(=O)[C@@H]1CCCN1C(=O)Cc1ccccc1 | 1.5
* CCN1CCC[C@H]1CNC(=O)c1c(OC)ccc(Br)c1OC [REMOXIPRIDE] | 0.31
* CN1CCN(C2=Nc3cc(Cl)ccc3Nc3ccccc32)CC1 | 20

The record that follows has no ED50 shown yet.
For reference, reported ED50 for CCCCCC(=O)N1CCC[C@H]1C(=O)N[C@@H](Cc1ccc(O)cc1)C(N)=O (Hexanoyl-Pro-Tyr-NH2) stands at 0.4

---

Test system: Mus musculus
test: Compound was tested in vivo for its ability to antagonize apomorphine-induced climbing response in mice upon intraperitoneal administration
Type: functional
particulars: ip
ED50 for assorted molecules
Respond with the bare value in mg/kg.

Would you please look over these solved cases?
- O=C(CCCN1CCC(O)(c2ccc(Cl)cc2)CC1)c1ccc(F)cc1: 0.1
- NC(=O)[C@H](Cc1ccc(O)cc1)NC(=O)[C@H]1CCCN1: 3.6
- NC(=O)[C@H](Cc1ccc(O)cc1)NC(=O)[C@H]1CCCN1C(=O)Cc1ccccc1: 4.9

The record that follows has no ED50 shown yet.
For reference, reported ED50 for CCN1CCC[C@H]1CNC(=O)c1cc(S(N)(=O)=O)ccc1OC [LEVOSULPIRIDE] stands at 17.5

---

test: Acute toxicity on male outbred albino mice upon intraperitoneal administration
particulars: mouse, in vivo, ip
Peptide text beside a SMILES is read from it. * marks the point of attachment. Hexanoyl = CCCCCC(=O)*
reported.endpoint: LD50

Would you please look over these solved cases?
* CCCCCC(=O)N1CCC[C@H]1C(=O)N[C@@H](Cc1ccc(O)cc1)C(N)=O (Hexanoyl-Pro-Tyr-NH2) | > 500 mg/kg
* NC(=O)[C@H](Cc1ccc(O)cc1)NC(=O)[C@@H]1CCCN1C(=O)Cc1ccccc1 | > 1000 mg/kg

For reference, reported LD50 for NC(=O)[C@H](Cc1ccc(O)cc1)NC(=O)[C@@H]1CCCN1 stands at > 500 mg/kg
